biological target: T1, human C-KIT-Fc (human, UniProt P10721 26-524); test: HTRF competition on human C-KIT-Fc against terbium-labelled h37M IgG1
T1 construct: also called biotinylated human C-KIT-Fc; not shown: Fc part not described
readoutKind: binding result

• MH8 (antibody, IgG1, V domains shown, IgG1) VH: QVQLVQSGAEVKKPGASVKVSCKASGYTFTDYYMNWVRQAPGQGLEWMGRIYPGSGNTYYAQKFQGRVTMTRDTSTSTVYMELSSLRSEDTAVYYCARGVYYYDYWGQGTLVTVSS VL: DIQMTQSPSSLSASVGDRVTITCRASQGIRTNLAWFQQKPGKAPKSLIYSASSLQSGVPSRFSGSGSGTDFTLTISSLQPEDFATYYCQQYSSYPRTFGGGTKVEIK = binds
• MH10 (antibody, IgG1, V domains shown, IgG1) VH: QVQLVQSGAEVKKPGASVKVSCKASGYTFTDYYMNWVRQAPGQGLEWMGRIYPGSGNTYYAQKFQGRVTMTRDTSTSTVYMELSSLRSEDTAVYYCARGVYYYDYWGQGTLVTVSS VL: DIQMTQSPSSLSASVGDRVTITCRASQGIRTNLAWFQQKPGKAPKSLIYSASSLQSGVPSRFSGSGSGTDFTLTISSLQPEDFATYYCQQYTSYPRTFGGGTKVEIK = binds
• MH12 (antibody, IgG1, V domains shown, IgG1) VH: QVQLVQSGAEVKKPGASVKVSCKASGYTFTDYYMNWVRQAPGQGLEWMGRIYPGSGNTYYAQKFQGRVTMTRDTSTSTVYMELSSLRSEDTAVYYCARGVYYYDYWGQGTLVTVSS VL: DIQMTQSPSSLSASVGDRVTITCRASQGVRTNLAWFQQKPGKAPKSLIYAASSLQSGVPSRFSGSGSGTDFTLTISSLQPEDFATYYCQQYNSYPRTFGGGTKVEIK = binds
• MH13 (antibody, IgG1, V domains shown, IgG1) VH: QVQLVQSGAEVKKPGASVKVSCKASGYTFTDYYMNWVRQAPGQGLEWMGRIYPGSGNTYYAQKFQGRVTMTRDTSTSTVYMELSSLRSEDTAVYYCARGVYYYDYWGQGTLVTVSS VL: DIQMTQSPSSLSASVGDRVTITCRASQGVRTNLAWFQQKPGKAPKSLIYAASSLQSGVPSRFSGSGSGTDFTLTISSLQPEDFATYYCQQYNAYPRTFGGGTKVEIK = binds

All values here come from patent US20200283521A1.
